- tgt: Recombinant human HSD17B13 (Homo sapiens (Human))
- Sequence (Q7Z5P4 20-300): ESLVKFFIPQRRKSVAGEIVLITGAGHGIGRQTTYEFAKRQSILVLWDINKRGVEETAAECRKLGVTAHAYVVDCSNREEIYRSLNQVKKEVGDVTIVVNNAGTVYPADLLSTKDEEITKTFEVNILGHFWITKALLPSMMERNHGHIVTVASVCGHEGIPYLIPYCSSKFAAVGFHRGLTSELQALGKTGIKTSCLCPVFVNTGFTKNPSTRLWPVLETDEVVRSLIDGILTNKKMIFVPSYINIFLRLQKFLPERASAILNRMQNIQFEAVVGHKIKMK
- assay method text: HSD17B13 rapid-fire mass spectrometry assay (RF/MS assay)
- Type: biochemical
- test context: inhibition of HSD17B13; LTB4 10 μM, NAD+ 0.5 mM, RT 3 h; IC50 ranges A-E
- Description: HSD17B13 rapid-fire mass spectrometry assay (RF/MS assay). Recombinant human HSD17B13 was expressed and purified from sf9 cells at Charles River Labs (Saffron Walden, UK). […] Leukotriene B4 (335.3) and 12-oxoLeukotriene B4 (333.3) SRM transitions were optimized with Discovery Quant software and extracted ion counts for these analytes were determined. […] By using above method, the inhibition of HSD17B13 was evaluated for the compounds of Formula (I). […]
attribute measured: IC50

Solved entries:
- molecule: "CC[C@H]1CC[C@H](c2ccc(-c3ccnc(S(=O)(=O)Nc4cc(F)c(C(=O)O)cc4OC)c3)cc2)CC1"
  IC50: "100 to 500 nM"
- molecule: "O=S(=O)(Nc1ccccc1)c1csc(-c2ccccc2)n1"
  IC50: "> 100000 nM"
- molecule: "COc1cc(C(=O)O)ccc1NS(=O)(=O)c1coc(-c2ccc(C(C)(C)C)cc2)n1"
  IC50: "100 to 500 nM"

Provide IC50 for all items below, preserving their order.
1. Cn1nc(C(=O)O)cc1NS(=O)(=O)c1cnc(-c2ccc(F)cc2)s1
2. COc1cc(C(=O)O)ccc1NS(=O)(=O)c1ccc(-c2cccc(-c3ccc(C(F)(F)F)cc3)c2)s1
3. COc1cc(C(=O)O)ccc1NS(=O)(=O)N1C[C@H]2CN(C(=O)OC(C)(C)C)C[C@H]2C1
4. COc1cc(C(=O)O)c(F)cc1NS(=O)(=O)c1ccn(-c2ccc(C3CCCCC3)cc2)n1

> 100000 nM
500 to 1000 nM
1000 to 100000 nM
100 to 500 nM

# map each molecule to its IC50
1. COc1cc(C(=O)O)ccc1NS(=O)(=O)c1csc(N2CCC(c3ccccc3)C2)n1 (stereo not shown)
2. COc1cc(C(=O)O)c(F)cc1NS(=O)(=O)c1csc(-c2ccc(C3=CCC(C(C)C)CC3)c(OC(C)C)c2F)n1 (stereo not shown)
3. COc1cc(C(=O)O)ccc1NS(=O)(=O)c1coc(-c2ccc(C)cc2)n1
4. O=C(O)c1ccc(S(=O)(=O)Nc2ccc(-c3nccs3)cc2)cc1
5. COc1cc(C(=O)O)c(F)cc1NS(=O)(=O)c1csc(-c2ccc(F)cc2)n1
6. COc1cc(C(=O)O)ccc1NS(=O)(=O)c1csc(N2CCN(C3CCCC3)CC2)n1
7. O=C(O)c1cnc(NS(=O)(=O)c2cnc(-c3ccc(F)cc3)s2)cn1
8. COc1cc(C(=O)O)ccc1NS(=O)(=O)c1ccc(-c2ccc(C(F)(F)F)cc2)s1

1000 to 100000 nM
< 100 nM
< 100 nM
1000 to 100000 nM
100 to 500 nM
1000 to 100000 nM
1000 to 100000 nM
100 to 500 nM

Please supply IC50 for each of the following items, keeping them in order.
1. COc1cc(C(=O)O)ccc1NS(=O)(=O)c1csc(-c2ccc3cnccc3c2)n1
2. COc1cc(C(=O)O)c(F)cc1NS(=O)(=O)c1csc(-c2ccc(C3=CCC(C)(C)CC3)cc2C(F)(F)F)n1
3. COc1cc(C(=O)O)c(F)cc1NS(=O)(=O)c1ccc2sc(-c3ccc(C4CCCCC4)cc3)nc2c1
4. COc1cc(C(=O)O)c(F)cc1NS(=O)(=O)c1csc(-c2ccc(-c3ccc4c(c3)NCCO4)cc2)n1
5. COc1cc(C(=O)O)ccc1NS(=O)(=O)c1cnc(-c2ccc(-c3ccc(C(F)(F)F)cc3)cc2)s1
6. CCOc1c(F)c(-c2nc(S(=O)(=O)Nc3cc(F)c(C(=O)O)cc3OC)cs2)ccc1[C@H]1CC[C@H](C(F)(F)F)CC1
7. CCC[C@H]1CC[C@H](C2CCC(c3nc(S(=O)(=O)Nc4ccc(C(=O)O)cc4OC)cs3)CC2)CC1 (stereo partly shown) [Example 504]
8. COc1cc(C(=O)O)c(F)cc1NS(=O)(=O)c1csc(-c2ccc(C3=CCC(C(C)(C)C)CC3)c(F)c2C)n1 (stereo not shown)

["100 to 500 nM", "< 100 nM", "100 to 500 nM", "< 100 nM", "< 100 nM", "100 to 500 nM", "100 to 500 nM", "< 100 nM"]
